# target.entity: P2X7 (Homo sapiens (Human))
# Sequence (Q99572 whole entry): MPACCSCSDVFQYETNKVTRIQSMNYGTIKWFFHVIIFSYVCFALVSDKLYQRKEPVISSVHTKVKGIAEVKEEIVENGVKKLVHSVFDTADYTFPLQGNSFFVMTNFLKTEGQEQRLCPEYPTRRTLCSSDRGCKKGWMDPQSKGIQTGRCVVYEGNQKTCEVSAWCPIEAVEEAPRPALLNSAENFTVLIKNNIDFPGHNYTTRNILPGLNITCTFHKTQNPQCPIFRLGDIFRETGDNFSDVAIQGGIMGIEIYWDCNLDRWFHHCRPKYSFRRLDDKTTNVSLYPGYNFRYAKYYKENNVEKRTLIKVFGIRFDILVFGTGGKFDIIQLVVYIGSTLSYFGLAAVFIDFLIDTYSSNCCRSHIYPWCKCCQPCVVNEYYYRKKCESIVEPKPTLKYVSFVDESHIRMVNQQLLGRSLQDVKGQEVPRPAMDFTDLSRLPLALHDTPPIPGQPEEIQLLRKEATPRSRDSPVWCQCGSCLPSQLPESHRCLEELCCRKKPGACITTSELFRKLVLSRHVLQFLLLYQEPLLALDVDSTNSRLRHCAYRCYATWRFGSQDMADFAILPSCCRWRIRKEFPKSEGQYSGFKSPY
# procedure.details: P2X7 antagonism in human PBMCs (IL-1β release, LPS + Bz-ATP)
# Type: cell-based
# test.conditions: 10 μM test compound, LPS 30 ng/ml + 0.5 mM Bz-ATP
measured.attribute: PBMC 10 μM (% control)
The reply should be a number in % control, with the unit left off.

Before answering, review these 3 worked examples.
So the reported PBMC 10 μM (% control) for `C[C@H]1Cn2c(nnc2-c2cnccn2)C(=O)N1Cc1cccc(Cl)c1Cl` , on P2X7 (Homo sapiens (Human)), turned out to be 15.4

So the reported PBMC 10 μM (% control) for `CC[C@H]1Cn2c(nnc2-c2cnccn2)C(=O)N1Cc1cccc(C(F)(F)F)c1Cl` , on P2X7 (Homo sapiens (Human)), turned out to be 1.2

So the reported PBMC 10 μM (% control) for CC(c1cccc(C(F)(F)F)c1Cl)N1C(=O)c2nnc(-c3cnccn3)n2C[C@@H]1C (stereo partly shown) , on P2X7 (Homo sapiens (Human)), turned out to be 4.5

Proceeding to the next compound to report its PBMC 10 μM (% control).
So the reported PBMC 10 μM (% control) for `C[C@H]1Cn2c(nnc2-c2cnccn2)C(=O)N1Cc1cccc(C(F)(F)F)c1Cl` , on P2X7 (Homo sapiens (Human)), turned out to be 13.4
